Each recorded value in this set is attributed to ChEMBL document CHEMBL4619790.

Experiment: Stability in minipig Hepatocyte assessed as clearance
Type: ADME, cell-based, Sus scrofa
Settings: pig, hepatocytes; read-out: CLH
Below, each entry is listed with its recorded CLint scaled.

smilesRepr	result
COc1ncc2cc1NS(=O)(=O)CCN(C)Cc1ccc3c(c1)N2CCO3	< 0.89 mL/min/kg

// next item, CLint scaled requested
Field CLint scaled (entry "COc1ncc(N2CCOc3ccc(CN(C)C)cc32)cc1NS(C)(=O)=O" ) reads < 0.89 mL/min/kg

* * *

Assay: Permeability of the compound by PAMPA
Format: ADME
Details: read-out: permeability
measuredProperty: Papp (×10⁻⁶ cm/s)

(A) COc1ncc(N2CCOc3ccc(CN(C)C)cc32)cc1NS(C)(=O)=O
(B) COc1ncc2cc1NS(=O)(=O)CCN(C)Cc1ccc3c(c1)N2CCO3
Inquiry: Smaller Papp value, A vs B ? Select an item and report its label.
Reply text: A
(A: 14 ×10⁻⁶ cm/s, B: 53 ×10⁻⁶ cm/s)

* * *

Experiment: Volume of distribution at steady state in iv dosed rat
Assay type: ADME, organism-based
Conditions: in vivo, read-out: Vdss
measuredProperty: Vd (L/kg)

(A) COc1ncc2cc1NS(=O)(=O)CCN(C)Cc1ccc3c(c1)N2CCO3
(B) COc1ncc(N2CCOc3ccc(CN(C)C)cc32)cc1NS(C)(=O)=O
Inquiry: Which numeric Vd is bigger, that of A or that of B ? Select an item and report its label.
Reply text: B

* * *

Assay: Half life in iv dosed rat
Assay type: ADME, organism-based
Settings: in vivo
measuredProperty: half-life (h)

(A) COc1ncc(N2CCOc3ccc(CN(C)C)cc32)cc1NS(C)(=O)=O
(B) COc1ncc2cc1NS(=O)(=O)CCN(C)Cc1ccc3c(c1)N2CCO3
Inquiry: Which numeric half-life is bigger, that of A or that of B ? Select an item and report its label.
Reply text: B

* * *

Test: Stability in minipig microsomes assessed as clearance
Type: ADME, Sus scrofa, Microsome
Conditions: pig
measuredProperty: CLint scaled (mL/min/kg)

(I) COc1ncc2cc1NS(=O)(=O)CCN(C)Cc1ccc3c(c1)N2CCO3
(II) COc1ncc(N2CCOc3ccc(CN(C)C)cc32)cc1NS(C)(=O)=O
Inquiry: Which numeric CLint scaled is bigger, that of I or that of II ? Select an item and report its label.
Reply text: II

* * *

Below, each entry is listed with its recorded solubility kinetic.
Test: Solubility of the compound by CLND method
Assay type: physicochemical

smilesRepr	result
COc1ncc(N2CCOc3ccc(CN(C)C)cc32)cc1NS(C)(=O)=O	≥ 406 µM

// next item, solubility kinetic requested
Field solubility kinetic (entry "COc1ncc2cc1NS(=O)(=O)CCN(C)Cc1ccc3c(c1)N2CCO3" ) reads ≥ 331 µM

* * *

Assay: Clearance in iv dosed rat
Type: ADME, organism-based
Details: in vivo
measuredProperty: clearance (mL/min/kg)

(P) COc1ncc(N2CCOc3ccc(CN(C)C)cc32)cc1NS(C)(=O)=O
(Q) COc1ncc2cc1NS(=O)(=O)CCN(C)Cc1ccc3c(c1)N2CCO3
Inquiry: Which numeric clearance is bigger, that of P or that of Q ? Select an item and report its label.
Reply text: P
(P: 233 mL/min/kg, Q: 12.3 mL/min/kg)
